These data points were gathered from ChEMBL document CHEMBL3596162.

Readings of concentration for the listed molecules
experiment.description: Drug concentration in brain of gerbil foot tap model at 10 mg/kg, po
Format: ADME, organism-based
experimental.conditions: gerbillinae, in vivo, read-out: Drug uptake
I'd appreciate it if you included the unit after the number.

smiles_repr=N#Cc1ccc(-c2cc(COCC3(c4ccccc4)CCNCC3)cc(C(F)(F)F)c2)cc1 reported="190 nM"

[Q] I would be grateful if you could share the reported concentration for CN1CCC(COCc2cc(-c3ccc(C#N)cc3)cc(C(F)(F)F)c2)(c2ccccc2)CC1 .
[A] 1300 nM

----------
Readings of pIC50 for the listed molecules
measured.on: UniProt:Q5DUB1
experiment.description: Displacement of [125I]-substance P from gerbil NK1 receptor expressed in HEK293 cell membranes incubated for 30 mins by liquid scintillation counting method
# log scale: pIC50 equals minus log10 of the concentration in mol/L

smiles_repr=Cc1cc(-c2cc(COCC3(c4ccccc4)CCNCC3)cc(C(F)(F)F)c2)ccc1C#N measure=pIC50 reported=8.92

[Q] Provide the documented pIC50 with UniProt:Q5DUB1 as the system for CN1CCC(COCc2cc(-c3ccc(C#N)cc3)cc(C(F)(F)F)c2)(c2ccccc2)CC1
[A] 9.54

[Q] Now consider N#Cc1ccc(-c2cc(COCC3(c4ccccc4)CCNCC3)cc(C(F)(F)F)c2)nc1 .
[A] 8.09

[Q] Now consider N#Cc1ccc(-c2cc(COCC3(c4ccccc4)CCNCC3)cc(C(F)(F)F)c2)cc1Cl .
[A] 8.96

[Q] Now consider Oc1ccc(-c2cc(COCC3(c4ccccc4)CCNCC3)cc(C(F)(F)F)c2)cc1 .
[A] 8.44

[Q] Now consider FC(F)(F)c1cc(COCC2(c3ccccc3)CCNCC2)cc(-c2ccc3ccccc3c2)c1 .
[A] 6.92

[Q] Now consider Fc1cccc(-c2cc(COCC3(c4ccccc4)CCNCC3)cc(C(F)(F)F)c2)c1 .
[A] 8.30

----------
Readings of concentration for the listed compounds
experiment.description: Plasma concentration in gerbil foot tap model at 10 mg/kg, po
Format: ADME, organism-based
experimental.conditions: gerbillinae, in vivo
Numbers only; they are read as nM.

smiles_repr=N#Cc1ccc(-c2cc(COCC3(c4ccccc4)CCNCC3)cc(C(F)(F)F)c2)cc1 unit_symbol=nM reported=365

Okay, next one:
[Q] I would be grateful if you could share the reported concentration for CN1CCC(COCc2cc(-c3ccc(C#N)cc3)cc(C(F)(F)F)c2)(c2ccccc2)CC1 .
[A] 526

----------
measured.on: Substance-P receptor (Meriones unguiculatus, UniProt Q5DUB1)
Sequence (Q5DUB1 whole entry): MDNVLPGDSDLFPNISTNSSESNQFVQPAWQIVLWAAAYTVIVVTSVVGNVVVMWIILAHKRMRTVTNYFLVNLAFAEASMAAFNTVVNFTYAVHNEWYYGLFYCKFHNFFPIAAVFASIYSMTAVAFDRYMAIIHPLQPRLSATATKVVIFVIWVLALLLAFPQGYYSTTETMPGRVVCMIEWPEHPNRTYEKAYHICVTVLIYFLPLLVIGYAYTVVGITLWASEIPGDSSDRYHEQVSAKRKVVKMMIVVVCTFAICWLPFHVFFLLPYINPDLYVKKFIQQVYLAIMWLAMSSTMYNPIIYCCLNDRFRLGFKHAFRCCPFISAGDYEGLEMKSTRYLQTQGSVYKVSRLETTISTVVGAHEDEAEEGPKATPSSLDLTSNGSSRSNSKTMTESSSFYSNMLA
experiment.description: Displacement of [125I]-substance P from gerbil NK1 receptor expressed in HEK293 cell membranes incubated for 30 mins by liquid scintillation counting method
measure: pIC50
# log scale: pIC50 equals minus log10 of the concentration in mol/L

Example results:
smiles_repr=FC(F)(F)c1cc(COCC2(c3ccccc3)CCNCC2)cc(-c2ccccc2Cl)c1 measure=pIC50 reported=7.17
smiles_repr=Cc1ccc(-c2cc(COCC3(c4ccccc4)CCNCC3)cc(C(F)(F)F)c2)cc1 measure=pIC50 reported=8.08

[Q] I would be grateful if you could share the reported pIC50 for O=[N+]([O-])c1ccccc1-c1cc(COCC2(c3ccccc3)CCNCC2)cc(C(F)(F)F)c1 .
[A] 8.19
